# System: 292921-168-R-J2-PDC complex spheroid growth
# assayMethodText: Anticancer human tumor 292921-168-R-J2-PDC patient-derived pancreatic carcinoma cell line growth inhibition [AhR]
# statedConditions: second compound 1 µM; first compound 0.316 µM; hits give low values
# Excerpt: Multicellular complex tumor spheroid response to aryl hydrocarbon receptor antagonists in combination with a variety of drugs and investigational agents in selected tumor cell lines […] Compounds. […] If the clinical Cmax for an agent had not been determined, the highest concentration tested was 10 microM (Table 1). […]
attributeMeasured: viability, T/C (%)

- compound: "COc1cc(Nc2ncc3c(n2)-c2ccc(Cl)cc2C(c2c(F)cccc2OC)=NC3)ccc1C(=O)O + CC(CO)NC(=O)c1cc(-c2ccc(Cl)cc2)nn(-c2cnn(C)c2)c1=O"
  attributeMeasured: "viability, T/C"
  readoutNumber: 39.3
- compound: "O=C(c1cc(Cc2n[nH]c(=O)c3ccccc23)ccc1F)N1CCN(C(=O)C2CC2)CC1 + Cc1ccccc1N=Nc1ccc(NC(=O)c2ccnn2C)c(C)c1"
  attributeMeasured: "viability, T/C"
  readoutNumber: 79.2
- compound: "COc1ccc([C@@H](O)c2cc(-c3ncnc4cc(N5CCOCC5)ccc34)c(F)cc2Cl)nn1 + Cc1ccccc1N=Nc1ccc(NC(=O)c2ccnn2C)c(C)c1"
  attributeMeasured: "viability, T/C"
  readoutNumber: 71.6

----------
# System: 292921-168-R-J2-PDC complex spheroid growth
# assayMethodText: Anticancer human tumor 292921-168-R-J2-PDC cell line growth inhibition [AhR]; active means viability on the fitted dose curve at most 10% of control; inactive means the rest;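 further: spheroids exposed to compounds for seven days after three days of growth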
# statedConditions: second compound 1 µM; first compound 0.03 µM
Classes used: active, inactive

- compound: "CC(C)CC(NC(=O)C(Cc1ccccc1)NC(=O)c1cnccn1)B(O)O (stereo not given) + Cc1cncc(-c2nc(NCCc3c[nH]c4ccccc34)c3ncn(C(C)C)c3n2)c1"
  systemUnderTest: "292921-168-R-J2-PDC complex spheroid growth"
  categoryLabel: "active"
- compound: "Nc1ncn(C2CC(O)C(CO)S2)c(=O)n1 (stereo not given) + CC(CO)NC(=O)c1cc(-c2ccc(Cl)cc2)nn(-c2cnn(C)c2)c1=O"
  systemUnderTest: "292921-168-R-J2-PDC complex spheroid growth"
  categoryLabel: "inactive"
- compound: "CCc1c2c(nc3ccc(O)cc13)-c1cc3c(c(=O)n1C2)COC(=O)[C@]3(O)CC + Cc1ccccc1N=Nc1ccc(NC(=O)c2ccnn2C)c(C)c1"
  systemUnderTest: "292921-168-R-J2-PDC complex spheroid growth"
  categoryLabel: "active"
- compound: "CCN(c1cc(-c2ccc(CN3CCOCC3)cc2)cc(C(=O)NCc2c(C)cc(C)[nH]c2=O)c1C)C1CCOCC1 + Cc1cncc(-c2nc(NCCc3c[nH]c4ccccc34)c3ncn(C(C)C)c3n2)c1"
  systemUnderTest: "292921-168-R-J2-PDC complex spheroid growth"
  categoryLabel: "inactive"
- compound: "CCN(c1cc(-c2ccc(CN3CCOCC3)cc2)cc(C(=O)NCc2c(C)cc(C)[nH]c2=O)c1C)C1CCOCC1 + Cc1ccccc1N=Nc1ccc(NC(=O)c2ccnn2C)c(C)c1"
  systemUnderTest: "292921-168-R-J2-PDC complex spheroid growth"
  categoryLabel: "inactive"
- compound: "CC(C)CC(NC(=O)C(Cc1ccccc1)NC(=O)c1cnccn1)B(O)O (stereo not given) + CC(CO)NC(=O)c1cc(-c2ccc(Cl)cc2)nn(-c2cnn(C)c2)c1=O"
  systemUnderTest: "292921-168-R-J2-PDC complex spheroid growth"
  categoryLabel: "active"
- compound: "CCN(c1cc(-c2ccc(CN3CCOCC3)cc2)cc(C(=O)NCc2c(C)cc(C)[nH]c2=O)c1C)C1CCOCC1 + CC(CO)NC(=O)c1cc(-c2ccc(Cl)cc2)nn(-c2cnn(C)c2)c1=O"
  systemUnderTest: "292921-168-R-J2-PDC complex spheroid growth"
  categoryLabel: "inactive"
- compound: "O=C(C=Cn1cnc(-c2cc(C(F)(F)F)cc(C(F)(F)F)c2)n1)NNc1cnccn1 + Cc1cncc(-c2nc(NCCc3c[nH]c4ccccc34)c3ncn(C(C)C)c3n2)c1"
  systemUnderTest: "292921-168-R-J2-PDC complex spheroid growth"
  categoryLabel: "inactive"
- compound: "CCc1c2c(nc3ccc(O)cc13)-c1cc3c(c(=O)n1C2)COC(=O)[C@]3(O)CC + CC(CO)NC(=O)c1cc(-c2ccc(Cl)cc2)nn(-c2cnn(C)c2)c1=O"
  systemUnderTest: "292921-168-R-J2-PDC complex spheroid growth"
  categoryLabel: "inactive"
- compound: "Nc1ncn(C2CC(O)C(CO)S2)c(=O)n1 (stereo not given) + Cc1cncc(-c2nc(NCCc3c[nH]c4ccccc34)c3ncn(C(C)C)c3n2)c1"
  systemUnderTest: "292921-168-R-J2-PDC complex spheroid growth"
  categoryLabel: "inactive"
- compound: "CCc1c2c(nc3ccc(O)cc13)-c1cc3c(c(=O)n1C2)COC(=O)[C@]3(O)CC + Cc1cncc(-c2nc(NCCc3c[nH]c4ccccc34)c3ncn(C(C)C)c3n2)c1"
  systemUnderTest: "292921-168-R-J2-PDC complex spheroid growth"
  categoryLabel: "inactive"
- compound: "O=C(C=Cn1cnc(-c2cc(C(F)(F)F)cc(C(F)(F)F)c2)n1)NNc1cnccn1 + Cc1ccccc1N=Nc1ccc(NC(=O)c2ccnn2C)c(C)c1"
  systemUnderTest: "292921-168-R-J2-PDC complex spheroid growth"
  categoryLabel: "inactive"
- compound: "CC(C)CC(NC(=O)C(Cc1ccccc1)NC(=O)c1cnccn1)B(O)O (stereo not given) + Cc1ccccc1N=Nc1ccc(NC(=O)c2ccnn2C)c(C)c1"
  systemUnderTest: "292921-168-R-J2-PDC complex spheroid growth"
  categoryLabel: "active"
- compound: "O=C(C=Cn1cnc(-c2cc(C(F)(F)F)cc(C(F)(F)F)c2)n1)NNc1cnccn1 + CC(CO)NC(=O)c1cc(-c2ccc(Cl)cc2)nn(-c2cnn(C)c2)c1=O"
  systemUnderTest: "292921-168-R-J2-PDC complex spheroid growth"
  categoryLabel: "inactive"
- compound: "Nc1ncn(C2CC(O)C(CO)S2)c(=O)n1 (stereo not given) + Cc1ccccc1N=Nc1ccc(NC(=O)c2ccnn2C)c(C)c1"
  systemUnderTest: "292921-168-R-J2-PDC complex spheroid growth"
  categoryLabel: "inactive"
